Measured Kd of individual entries
biological target: T1, cynomolgus monkey GPVI extracellular domain fused at its C-terminus to human IgG1 Fc (GPVI-Fc) (cynomolgus monkey; human); assay: Solution equilibrium titration (SET), Fab with GPVI-Fc
T1 construct: also called cyGPVI-2; cyGPVI
T1 sequence (chain, as listed by the source limits assumed): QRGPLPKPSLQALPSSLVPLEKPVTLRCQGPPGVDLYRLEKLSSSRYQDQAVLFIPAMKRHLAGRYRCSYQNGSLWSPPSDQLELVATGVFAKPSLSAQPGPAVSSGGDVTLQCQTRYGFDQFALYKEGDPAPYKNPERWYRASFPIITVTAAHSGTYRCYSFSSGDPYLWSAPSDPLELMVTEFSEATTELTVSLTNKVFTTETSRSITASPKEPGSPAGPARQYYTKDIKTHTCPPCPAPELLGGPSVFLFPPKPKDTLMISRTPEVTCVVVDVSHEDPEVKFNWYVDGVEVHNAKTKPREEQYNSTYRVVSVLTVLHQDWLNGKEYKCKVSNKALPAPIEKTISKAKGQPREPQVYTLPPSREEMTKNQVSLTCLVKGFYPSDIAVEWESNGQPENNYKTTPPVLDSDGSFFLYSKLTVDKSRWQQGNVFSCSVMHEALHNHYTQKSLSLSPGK
Your answer should be a plain number; it is taken to be in pM.

Example entries begin here.
Binder: Fab #1 comprising a modified heavy chain constant region (Fab, V domains shown, Human Fab from the Ylanthia library; produced in HKB11 cells; also called Fab #1 mod; HC) VH: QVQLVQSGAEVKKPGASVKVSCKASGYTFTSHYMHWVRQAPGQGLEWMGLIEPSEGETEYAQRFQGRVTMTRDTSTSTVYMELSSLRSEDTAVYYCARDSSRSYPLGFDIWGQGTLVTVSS VL: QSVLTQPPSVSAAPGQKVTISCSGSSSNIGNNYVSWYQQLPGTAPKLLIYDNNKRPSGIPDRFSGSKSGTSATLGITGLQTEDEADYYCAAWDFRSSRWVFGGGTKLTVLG
Measurement Unit: pM
Kd: 75
//
Binder: Fab #2 comprising a modified heavy chain constant region (Fab, V domains shown, Human Fab from the Ylanthia library; produced in HKB11 cells; also called Fab #2 mod; HC) VH: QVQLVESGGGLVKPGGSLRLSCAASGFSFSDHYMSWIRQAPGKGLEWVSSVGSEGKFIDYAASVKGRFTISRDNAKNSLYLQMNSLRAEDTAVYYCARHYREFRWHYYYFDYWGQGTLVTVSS VL: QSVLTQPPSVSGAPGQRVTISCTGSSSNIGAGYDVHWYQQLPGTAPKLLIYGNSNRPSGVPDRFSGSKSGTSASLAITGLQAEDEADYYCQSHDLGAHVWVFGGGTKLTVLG
Measurement Unit: pM
Kd: 24
//
Binder: Fab #4 comprising a modified heavy chain constant region (Fab, V domains shown, Human Fab from the Ylanthia library; produced in HKB11 cells; also called Fab #4 mod; HC) VH: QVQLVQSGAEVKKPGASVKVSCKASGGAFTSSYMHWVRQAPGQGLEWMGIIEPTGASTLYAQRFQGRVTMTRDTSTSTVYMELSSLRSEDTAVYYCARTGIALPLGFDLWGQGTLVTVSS VL: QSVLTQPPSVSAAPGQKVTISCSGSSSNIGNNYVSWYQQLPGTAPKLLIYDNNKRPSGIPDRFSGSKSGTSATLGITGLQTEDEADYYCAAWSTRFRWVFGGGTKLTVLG
Measurement Unit: pM
Kd: 17
//
Binder: Fab #3 comprising a modified heavy chain constant region (Fab, V domains shown, Human Fab from the Ylanthia library; produced in HKB11 cells; also called Fab #3 mod; HC) VH: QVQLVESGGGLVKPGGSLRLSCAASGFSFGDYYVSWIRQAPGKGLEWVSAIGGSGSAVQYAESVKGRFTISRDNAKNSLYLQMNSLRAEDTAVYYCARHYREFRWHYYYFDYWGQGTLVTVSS VL: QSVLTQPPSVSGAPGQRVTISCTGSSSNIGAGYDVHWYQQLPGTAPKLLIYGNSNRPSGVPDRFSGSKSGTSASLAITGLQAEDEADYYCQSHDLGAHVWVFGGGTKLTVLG
Measurement Unit: pM
Kd: 68

stdin: # get_value(readout='Kd', item= Reference Control Antibody RefFab #1 (humanized GPVI antibody of WO2011073954A2, SANOFI) (Fab, V domains shown, Cloned into mammalian Fab expression vectors; a glycine-serine linker (G4S)2 was added to the C-terminus of the Fab heavy chain) VH: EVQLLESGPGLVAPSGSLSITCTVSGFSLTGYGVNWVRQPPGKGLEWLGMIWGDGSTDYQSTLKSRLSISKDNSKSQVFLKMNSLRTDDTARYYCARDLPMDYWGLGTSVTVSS VL: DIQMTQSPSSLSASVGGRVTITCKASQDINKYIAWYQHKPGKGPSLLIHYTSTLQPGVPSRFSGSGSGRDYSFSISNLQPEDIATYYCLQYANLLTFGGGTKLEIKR )
stdout: 36

meta.source: patent US20210214435A1
